Attribution: ChEMBL document CHEMBL1130080

Known Bullatacin index of a selection of compounds
# procedure summary: Bullaticin index relates the IC50 values by normalizing to the value of bullatacin for easy comparison.
# Format: ADME

Please review the entries below; each comes with its answer.
* CCCCCCCCCC[C@@H](O)[C@@H]1CC[C@@H]([C@@H]2CC[C@@H]([C@H](O)CCCCCCCCCC(O)CC3=CC(C)OC3=O)O2)O1 (stereo partly drawn) | 1
* CCCCCCCCCCCC[C@@H](O)[C@H]1CC[C@H]([C@H](O)CCCC[C@H](O)CCCCC[C@@H](O)CC2=C[C@H](C)OC2=O)O1 | 4.19
* CCCCCCCCCCCCCC[C@@H](O)[C@H](O)CC[C@H](O)[C@@H]1CC[C@@H](CCCCC[C@@H](O)CC2=C[C@H](C)OC2=O)O1 | 0.5
* CCCCC[C@H](O)CCCC[C@H](O)[C@H]1CC[C@H]([C@H]2CC[C@H]([C@H](O)CCCCCCCCCCCCC3=C[C@H](C)OC3=O)O2)O1 | 1.23
* CCCCCCCCCCCC[C@H](O)[C@H]1CC[C@H]([C@H]2CC[C@H]([C@H](O)CCCCCCCC[C@@H](O)CC3=C[C@H](C)OC3=O)O2)O1 | 6.79
* CCCCCCCCCC[C@@H](O)[C@@H]1CC[C@H]([C@H](O)CC[C@H](O)[C@@H]2CC[C@@H](CCCCCCC[C@@H](O)CC3=C[C@H](C)OC3=O)O2)O1 | 2.76
* CCCCCCCCCCCC[C@@H](O)[C@H]1CC[C@H]([C@H]2CC[C@H]([C@H](O)CC[C@H](O)CCCCCCCCC3=C[C@H](C)OC3=O)O2)O1 | 67.2
* CCCCCCCCCCCC/C=C\CC[C@@H](O)[C@H](O)CC[C@H](O)[C@@H]1CC[C@@H](CCCCC[C@@H](O)CC2=C[C@H](C)OC2=O)O1 | 5.26
* CC[C@]1(O)C[C@@H]2CN(CCc3c([nH]c4ccccc34)[C@@](C(=O)OC)(c3cc4c(cc3OC)N(C)[C@H]3[C@@](O)(C(=O)OC)[C@H](OC(C)=O)[C@]5(CC)C=CCN6CC[C@]43[C@@H]65)C2)C1 | 18.8
* CCCCCCCCCC[C@H](O)[C@H]1CC[C@H]([C@H](O)CC[C@H](O)[C@@H]2CC[C@@H](CCCCCCC[C@@H](O)CC3=C[C@H](C)OC3=O)O2)O1 | 4.72

Which Bullatacin index value is on record for `CC[C@]1(O)C[C@H]2CN(CCc3c([nH]c4ccccc34)[C@@](C(=O)OC)(c3cc4c(cc3OC)N(C=O)[C@H]3[C@@](O)(C(=O)OC)[C@H](OC(C)=O)[C@]5(CC)C=CCN6CC[C@]43[C@@H]65)C2)C1` ?
141.3

Which Bullatacin index value is on record for `CCCCCCCCCC[C@@H](O)[C@H]1CC[C@@H]([C@H]2CC[C@H]([C@H](O)CCCCCCCCCC[C@@H](O)CC3=C[C@H](C)OC3=O)O2)O1` ?
2.89

Which Bullatacin index value is on record for `COc1cccc2c1C(=O)c1c(O)c3c(c(O)c1C2=O)C[C@@](O)(C(=O)CO)C[C@@H]3O[C@H]1C[C@H](N)[C@H](O)[C@H](C)O1` ?
258.5

====

# procedure summary: Statistical significance of IC 50 values; Expressed as R value
# Type: ADME
Known Activity of a selection of compounds
Respond numerically, and do not add a unit to the figure.

Please review the entries below; each comes with its answer.
- CCCCCCCCCCCC[C@H](O)[C@H]1CC[C@H]([C@H]2CC[C@H]([C@H](O)CCCCCCCC[C@@H](O)CC3=C[C@H](C)OC3=O)O2)O1: 1
- CC[C@]1(O)C[C@@H]2CN(CCc3c([nH]c4ccccc34)[C@@](C(=O)OC)(c3cc4c(cc3OC)N(C)[C@H]3[C@@](O)(C(=O)OC)[C@H](OC(C)=O)[C@]5(CC)C=CCN6CC[C@]43[C@@H]65)C2)C1: 1
- CCCCCCCCCC[C@@H](O)[C@H]1CC[C@@H]([C@H]2CC[C@H]([C@H](O)CCCCCCCCCC[C@@H](O)CC3=C[C@H](C)OC3=O)O2)O1: 0.98
- CCCCCCCCCCCCCC[C@@H](O)[C@H](O)CC[C@H](O)[C@@H]1CC[C@@H](CCCCC[C@@H](O)CC2=C[C@H](C)OC2=O)O1: 0.97

Which Activity value is on record for `CCCCCCCCCCCC[C@@H](O)[C@H]1CC[C@H]([C@H]2CC[C@H]([C@H](O)CC[C@H](O)CCCCCCCCC3=C[C@H](C)OC3=O)O2)O1` ?
1
